Origin of the recorded values: paper PMC6479639

The compounds listed here are annotated with their CC50.
System: T. cruzi INC-5 bloodstream trypomastigotes
assay.summary: microbe, parasite or virus in culture
experimental.parameters: Trypanosoma cruzi, 24 h, read-out: LC50 Bloodstream Trypomastigotes T. cruzi INC-5

compound	assay.system	CC50
Cc1ccc(NC(=O)CCC(=O)N2CCC(c3ccccc3)=N2)cc1S(=O)(=O)N1CCCCC1 [Z2]	T. cruzi INC-5 bloodstream trypomastigotes	> 250 µM
C[C@H]1CCc2sc(-c3nnc(SCC(=O)N4N=C(c5ccco5)C[C@@H]4c4ccco4)o3)cc2C1 [Z3]	T. cruzi INC-5 bloodstream trypomastigotes	> 250 µM
Cc1ccc(C2=NN(C(=O)CN3C(=O)N[C@](C)(c4ccc(F)c(F)c4)C3=O)[C@H](c3ccco3)C2)cc1 [Z6]	T. cruzi INC-5 bloodstream trypomastigotes	> 250 µM
Clc1ccc2[nH]c3c(NCCCN4CCOCC4)ncnc3c2c1 [S1, reference compound]	T. cruzi INC-5 bloodstream trypomastigotes	> 250 µM
Cc1nnc(SCC(=O)N2N=C(c3ccc4ccccc4c3)C[C@@H]2c2ccccc2)n(N)c1=O [Z5]	T. cruzi INC-5 bloodstream trypomastigotes	185 µM
O=C(Cn1ccnc1[N+](=O)[O-])NCc1ccccc1 [Bzn, benznidazole, reference compound]	T. cruzi INC-5 bloodstream trypomastigotes	225 µM

* * *

assay.system: cysteine proteases from epimastigotes of Trypanosoma cruzi strain INC-5
assay.summary: Enzyme inhibition, protease extract, substrate Z-Phe-Arg-MCA
experimental.parameters: protein extract of INC-5 epimastigotes, Z-Phe-Arg-MCA 5 µM, compounds 6.25–200 µM, pH 6.5
pIC50: −log10 of the molar value.
The compounds listed here are annotated with their pIC50.

compound	censoring.qualifier	pIC50
C[C@H]1CCc2sc(-c3nnc(SCC(=O)N4N=C(c5ccco5)C[C@@H]4c4ccco4)o3)cc2C1 [Z3]	=	4.07
Clc1ccc2[nH]c3c(NCCCN4CCOCC4)ncnc3c2c1 [S1, reference compound]	<	3.70
Cc1ccc(NC(=O)CCC(=O)N2CCC(c3ccccc3)=N2)cc1S(=O)(=O)N1CCCCC1 [Z2]	<	3.70
Cc1nnc(SCC(=O)N2N=C(c3ccc4ccccc4c3)C[C@@H]2c2ccccc2)n(N)c1=O [Z5]	=	4.25
Cc1ccc(C2=NN(C(=O)CN3C(=O)N[C@](C)(c4ccc(F)c(F)c4)C3=O)[C@H](c3ccco3)C2)cc1 [Z6]	=	4.30
